Each entry below carries its recorded melting point.
property_measured: melting point

> print(dat)
                                   molecule  value.measured
1      O=C(O)C1CCN(c2ccccc2[N+](=O)[O-])CC1   158 to 160 °C
2                      c1cc(C2CCNCC2)[nH]n1   146 to 148 °C
3                      Nc1cccc(Oc2ncccn2)c1   125 to 127 °C
4     COC(=O)C(=O)CC(=O)c1ccc(-c2ccccc2)cc1   142 to 144 °C
5  O=C(CCl)NCC1COc2ccccc2O1 (configuration not stated)   212 to 214 °C
6                 NCC(=O)N1CCN(c2ccccc2)CC1     69 to 71 °C
7                   COc1ccc(Cc2nnc(N)s2)cc1   174 to 176 °C
